From: patent US20240116985A1

Molecular target: full-length beta-Catenin (Uniprot ID P35222) (Homo sapiens)
Construct: 10 nM full-length beta-Catenin (Uniprot ID P35222)
Sequence (P35222 1-781): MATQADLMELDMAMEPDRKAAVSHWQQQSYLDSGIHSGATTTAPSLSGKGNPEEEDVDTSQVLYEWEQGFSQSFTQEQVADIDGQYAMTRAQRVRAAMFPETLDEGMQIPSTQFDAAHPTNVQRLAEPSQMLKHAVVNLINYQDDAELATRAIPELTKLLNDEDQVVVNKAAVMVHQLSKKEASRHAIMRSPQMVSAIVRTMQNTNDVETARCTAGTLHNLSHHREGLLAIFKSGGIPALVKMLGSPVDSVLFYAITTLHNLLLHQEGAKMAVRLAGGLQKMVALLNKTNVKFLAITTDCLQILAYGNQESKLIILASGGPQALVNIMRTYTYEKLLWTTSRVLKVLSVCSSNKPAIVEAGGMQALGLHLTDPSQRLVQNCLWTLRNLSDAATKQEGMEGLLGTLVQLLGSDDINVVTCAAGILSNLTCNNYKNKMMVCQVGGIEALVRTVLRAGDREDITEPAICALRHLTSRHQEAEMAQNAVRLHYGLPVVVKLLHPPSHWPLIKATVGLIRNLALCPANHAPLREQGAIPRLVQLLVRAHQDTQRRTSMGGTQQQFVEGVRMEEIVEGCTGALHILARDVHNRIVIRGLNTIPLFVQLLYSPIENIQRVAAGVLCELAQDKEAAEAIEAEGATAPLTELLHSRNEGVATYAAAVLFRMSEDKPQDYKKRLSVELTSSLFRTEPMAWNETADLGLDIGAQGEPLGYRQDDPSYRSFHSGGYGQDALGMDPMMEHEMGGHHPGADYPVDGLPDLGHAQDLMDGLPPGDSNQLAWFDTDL
Experiment: Fluorescence polarization IC50 (beta-catenin / 5FAM-TCF4 10-53 competition)
Assay type: binding
Conditions: fluorescence polarization, beta-catenin; read-out: FP EC50
pIC50: −log10 of the molar value.
So basically: pIC50 at 6 or higher? That is y. Lower than 6? That is n.

>>> group_label("CC(=O)N1CCC[C@]12CC=CCCCC1(CCCC=CCCCOC(=O)N3CC[C@@](C(=O)N[C@@H](Cc4ccccc4Cl)C(=O)N[C@@H](Cc4csc5ccccc45)C(=O)N[C@@H](CCC(N)=O)C(N)=O)(C3)NC(=O)[C@H](CC(N)=O)NC(=O)[C@H](Cc3ccccc3)NC(=O)[C@H](C)NC(=O)[C@H](C)NC(=O)[C@H](CN(CC(=O)O)Cc3c(F)c(F)c(F)c(F)c3F)NC(=O)[C@H](CC(=O)O)NC1=O)NC(=O)[C@H](CC(C)(C)C)NC(=O)[C@H](CC(=O)O)NC2=O (stereo partly drawn) [I-1450]")
"y"
>>> group_label("CC(=O)N1CCC[C@]12CC=CCCCC1(CCCC=CCCCCCC[C@@](C)(C(=O)N[C@@H](Cc3ccccc3)C(=O)N[C@@H](Cc3csc4ccccc34)C(=O)N[C@@H](CCC(N)=O)C(N)=O)NC(=O)[C@H](CCC(N)=O)NC(=O)[C@H](Cc3cccc(C(F)(F)F)c3)NC(=O)[C@H](C)NC(=O)[C@H](C)NC(=O)[C@H](CC(=O)O)NC(=O)[C@H](CC(=O)O)NC1=O)NC(=O)[C@H](C)NC(=O)[C@H](CC(=O)O)NC2=O (stereo partly drawn) [I-380]")
"y"
>>> group_label("CC(=O)N1CCC[C@]12CC=CCCCC1(CCCC=CCCCOC(=O)N3CC[C@@](C(=O)N[C@@H](Cc4ccsc4)C(=O)N[C@@H](Cc4csc5ccccc45)C(=O)N[C@@H](CCC(N)=O)C(N)=O)(C3)NC(=O)[C@H](CC(C)C)NC(=O)[C@H](Cc3ccccc3)NC(=O)C(C)(C)NC(=O)C(C)(C)NC(=O)[C@H](CC(=O)O)NC(=O)[C@H](CC(=O)O)NC1=O)NC(=O)[C@H](CC(C)(C)C)NC(=O)[C@H](CC(=O)O)NC2=O (stereo partly drawn) [I-1180]")
"y"
>>> group_label("CCN(CC(=O)O)C[C@@H]1NC(=O)[C@H](CC(=O)O)NC(=O)C2(CCCC=CCCCOC(=O)N3CC[C@@](C(=O)N[C@@H](Cc4ccsc4)C(=O)N[C@@H](Cc4csc5ccccc45)C(=O)N[C@@H](CO)C(N)=O)(C3)NC(=O)[C@H](CO)NC(=O)[C@H](Cc3ccccc3)NC(=O)[C@H](C)NC(=O)[C@H](C)NC1=O)CCCC=CC[C@]1(CCCN1C(C)=O)C(=O)N[C@@H](CC(=O)O)C(=O)N[C@@H](CC(C)(C)C)C(=O)N2 (stereo partly drawn) [I-975]")
"n"
>>> group_label("CC(=O)N1CCC[C@]12CC=CCCCC1(CCCC=CCCCCOC(=O)N3CC[C@@](C(=O)N[C@@H](Cc4ccsc4)C(=O)N[C@@H](Cc4csc5ccccc45)C(=O)N[C@@H](CC(N)=O)C(=O)N[C@H](C)C(N)=O)(C3)NC(=O)[C@H](CC(N)=O)NC(=O)[C@H](Cc3ccccc3)NC(=O)[C@H](C)NC(=O)[C@H](C)NC(=O)[C@H](CC(=O)O)NC(=O)[C@H](CC(=O)O)NC1=O)NC(=O)[C@H](CC(C)(C)C)NC(=O)[C@H](CC(=O)O)NC2=O (stereo partly drawn) [I-834]")
"y"
>>> group_label("CC(=O)N1CCC[C@]12CC=CCCCC1(CCCC=CCCCOC(=O)N3CC[C@@](C(=O)N[C@@H](Cc4cccc(Cl)c4)C(=O)N[C@@H](Cc4csc5ccccc45)C(=O)N[C@@H](CCC(N)=O)C(N)=O)(C3)NC(=O)[C@H](CC(N)=O)NC(=O)[C@H](Cc3ccccc3)NC(=O)[C@H](C)NC(=O)[C@H](C)NC(=O)[C@H](CN(CC(=O)O)CC(F)(F)F)NC(=O)[C@H](CC(=O)O)NC1=O)NC(=O)[C@H](CC(C)(C)C)NC(=O)[C@H](CC(=O)O)NC2=O (stereo partly drawn) [I-926]")
"y"
>>> group_label("CC(=O)N1CCC[C@]12CC=CCCCC1(CCCC=CCCCOC(=O)N3CC[C@@](C(=O)N[C@@H](Cc4ccsc4)C(=O)N[C@@H](Cc4csc5ccccc45)C(=O)N[C@@H](CCC(N)=O)C(=O)NCCCCCCN)(C3)NC(=O)[C@H](CC(N)=O)NC(=O)[C@H](Cc3ccccc3)NC(=O)[C@H](C)NC(=O)[C@H](C)NC(=O)[C@H](CC(=O)O)NC(=O)[C@H](CC(=O)O)NC1=O)NC(=O)[C@H](CC(C)(C)C)NC(=O)[C@H](CC(=O)O)NC2=O (stereo partly drawn) [I-882]")
"y"
>>> group_label("CC(=O)N1CCC[C@]12CC=CCCCC1(CCCC=CCCCCCC[C@@](C)(C(=O)N[C@@H](Cc3cccc4ccccc34)C(=O)N[C@@H](Cc3c[nH]c4ccccc34)C(=O)N[C@@H](CCC(N)=O)C(N)=O)NC(=O)[C@H](C(C)C)NC(=O)[C@H](Cc3ccccc3)NC(=O)[C@H](C)NC(=O)[C@H](C)NC(=O)[C@H](CC(=O)O)NC(=O)[C@H](CC(=O)O)NC1=O)NC(=O)[C@H](C)NC(=O)[C@H](CC(=O)O)NC2=O (stereo partly drawn) [I-276]")
"n"

---

Readings of IC50 for the listed molecules
biological target: full-length beta-Catenin (Uniprot ID P35222) (Homo sapiens, UniProt P35222); construct: 10 nM full-length beta-Catenin (Uniprot ID P35222); assay: Fluorescence polarization IC50 (beta-catenin / 5FAM-TCF4 10-53 competition); type: binding; conditions: fluorescence polarization; read-out: beta-Catenin FP IC50
value kind: IC50 (nM)

>>> recorded_measurement("CC(=O)N1CCC[C@]12CC=CCCCC1(CCCC=CCCOC(=O)N3CCC(C(=O)N[C@@H](Cc4ccsc4)C(=O)N[C@@H](Cc4csc5ccccc45)C(=O)N[C@@H](C)C(N)=O)(CC3)NC(=O)[C@H](CC(C)C)NC(=O)[C@H](Cc3ccccc3)NC(=O)[C@H](C)NC(=O)[C@H](CCC(N)=O)NC(=O)[C@H](Cc3cccc(C(=O)O)c3)NC(=O)[C@H](CC(=O)O)NC1=O)NC(=O)[C@H](CC(C)(C)C)NC(=O)[C@H](CC(=O)O)NC2=O (stereo partly drawn) [I-2591]")
602
>>> recorded_measurement("CC[C@H](C)[C@@H]1NC(=O)[C@H](CC(=O)O)NC(=O)[C@]2(CC=CCCCC3(CCCC=CCCCCCC[C@@](C)(C(=O)N[C@@H](Cc4ccccc4)C(=O)N[C@@H](Cc4csc5ccccc45)C(=O)N4CCC[C@H]4C(N)=O)NC(=O)[C@H](CCC(N)=O)NC(=O)[C@H](Cc4ccccc4)NC(=O)[C@H](C)NC(=O)[C@H](C)NC(=O)[C@H](CCC(=O)O)NC(=O)[C@H](CC(=O)O)NC3=O)NC1=O)CCCN2C(C)=O (stereo partly drawn) [I-638]")
3880
>>> recorded_measurement("CC(=O)N1CCC[C@]12CC=CCCCC1(CCCC=CCCCOC(=O)N3CC[C@@](C(=O)N[C@@H](Cc4ccsc4)C(=O)N[C@@H](Cc4csc5ccccc45)C(=O)N[C@@H](CCC(N)=O)C(N)=O)(C3)NC(=O)[C@H](CC(C)C)NC(=O)[C@H](Cc3ccccc3)NC(=O)[C@H](C)NC(=O)[C@H](C)NC(=O)[C@H](CN(CC(=O)O)Cc3ccccc3)NC(=O)[C@H](CC(=O)O)NC1=O)NC(=O)[C@H](CC(C)(C)C)NC(=O)[C@H](CC(=O)O)NC2=O (stereo partly drawn) [I-1630]")
11.5
